Origin of values: ChEMBL document CHEMBL1136163

ASSAY: In vivo toxicity in mice i.v.
Format: organism-based
MEASUREMENT PARAMETERS: mouse, iv
Where a SMILES comes first, the peptide text is derived from it. The star is where a group is joined. βNA = c1ccc2cc(N*)ccc2c1
# LD50 annotations

{"COMPOUND": "C[C@H]1COc2c(N3CCN(C)CC3)c(F)cc3c(=O)c(C(=O)O)cn1c23.C[C@H]1COc2c(N3CCN(C)CC3)c(F)cc3c(=O)c(C(=O)O)cn1c23.O", "LD50": "> 100 mg/kg"}
{"COMPOUND": "N=C(N)NCCC[C@H](NC(=O)[C@@H](N)Cc1ccccc1)C(=O)Nc1ccc2ccccc2c1 [PABETAN] (H-Phe-Arg-βNA)", "LD50": "< 25 mg/kg"}
{"COMPOUND": "NCCC[C@@H](N)C(=O)N[C@H](CCc1ccccc1)C(=O)Nc1cnc2ccccc2c1", "LD50": "< 25 mg/kg"}

====

# clearance annotations
ASSAY: Clearance measured in rat
Type: ADME, organism-based
MEASUREMENT PARAMETERS: in vivo, read-out: CLfree (converted)
OBSERVATION TYPE: clearance (mL/min/kg)

{"TEST SMILES": "NC[C@@H]1CN[C@@H](C(=O)N[C@H](CCc2ccccc2)C(=O)Nc2ccc3ncccc3c2)C1", "UNIT OF MEASUREMENT": "mL/min/kg", "RESULT": 48.3}
{"TEST SMILES": "NCCC[C@@H](N)C(=O)N[C@H](CCc1ccccc1)C(=O)Nc1cnc2ccccc2c1", "UNIT OF MEASUREMENT": "mL/min/kg", "RESULT": 28.3}

====

# MLD annotations
ASSAY: In vivo minimum lethal dose causing lethality to >/=66% of the mice tested i.v.
Type: ADME, organism-based
MEASUREMENT PARAMETERS: mouse, iv
Where a SMILES comes first, the peptide text is derived from it. The star is where a group is joined. βNA = c1ccc2cc(N*)ccc2c1
OBSERVATION TYPE: MLD (mg/kg)

{"COMPOUND": "CC(C)(C)c1ccc2ncc(NC(=O)CNC(=O)[C@H](N)CCCN)cc2c1", "VALUE QUALIFIER": "=", "RESULT": 35}
{"COMPOUND": "N=C(N)NCCC[C@H](NC(=O)[C@@H](N)Cc1ccccc1)C(=O)Nc1ccc2ccccc2c1 [PABETAN] (H-Phe-Arg-βNA)", "VALUE QUALIFIER": "<", "RESULT": 25}
{"COMPOUND": "NCCC[C@@H](N)C(=O)N[C@H](CCc1ccccc1)C(=O)Nc1cnc2ccccc2c1", "VALUE QUALIFIER": "<", "RESULT": 25}
{"COMPOUND": "CC(C)(C)c1ccc2ncc(NC(=O)[C@H]3C[C@H](CN)CN3)cc2c1", "VALUE QUALIFIER": ">", "RESULT": 150}
{"COMPOUND": "C[C@H](N)C(=O)N[C@H](CCc1ccccc1)C(=O)Nc1cnc2ccccc2c1", "VALUE QUALIFIER": "=", "RESULT": 125}
{"COMPOUND": "CC(C)C[C@@H](NC(=O)[C@H](N)CCCN)C(=O)Nc1cnc2ccccc2c1", "VALUE QUALIFIER": "=", "RESULT": 50}
{"COMPOUND": "NC[C@@H]1CN[C@@H](C(=O)N[C@H](CCc2ccccc2)C(=O)Nc2cnc3ccccc3c2)C1", "VALUE QUALIFIER": "=", "RESULT": 50}
{"COMPOUND": "NCCO[C@H]1CN[C@H](C(=O)N[C@H](CCc2ccccc2)C(=O)Nc2cnc3ccccc3c2)C1", "VALUE QUALIFIER": "=", "RESULT": 70}
{"COMPOUND": "NC[C@@H]1CN[C@@H](C(=O)N[C@H](CCc2ccccc2)C(=O)Nc2ccc3ncccc3c2)C1", "VALUE QUALIFIER": ">", "RESULT": 100}
{"COMPOUND": "CN(C(=O)[C@@H](N)CCc1ccccc1)[C@@H](CCCN)CSc1nc2ccccc2s1", "VALUE QUALIFIER": "=", "RESULT": 25}
{"COMPOUND": "CN(C(=O)[C@@H](N)Cc1ccccc1)[C@@H](CCCN)C(=O)Nc1ccc2ccccc2c1", "VALUE QUALIFIER": "<", "RESULT": 25}
{"COMPOUND": "C[C@H]1COc2c(N3CCN(C)CC3)c(F)cc3c(=O)c(C(=O)O)cn1c23.C[C@H]1COc2c(N3CCN(C)CC3)c(F)cc3c(=O)c(C(=O)O)cn1c23.O", "VALUE QUALIFIER": ">", "RESULT": 100}
